measured.on: human BACE-1 (Homo sapiens, UniProt P56817)
Sequence (P56817 46-501): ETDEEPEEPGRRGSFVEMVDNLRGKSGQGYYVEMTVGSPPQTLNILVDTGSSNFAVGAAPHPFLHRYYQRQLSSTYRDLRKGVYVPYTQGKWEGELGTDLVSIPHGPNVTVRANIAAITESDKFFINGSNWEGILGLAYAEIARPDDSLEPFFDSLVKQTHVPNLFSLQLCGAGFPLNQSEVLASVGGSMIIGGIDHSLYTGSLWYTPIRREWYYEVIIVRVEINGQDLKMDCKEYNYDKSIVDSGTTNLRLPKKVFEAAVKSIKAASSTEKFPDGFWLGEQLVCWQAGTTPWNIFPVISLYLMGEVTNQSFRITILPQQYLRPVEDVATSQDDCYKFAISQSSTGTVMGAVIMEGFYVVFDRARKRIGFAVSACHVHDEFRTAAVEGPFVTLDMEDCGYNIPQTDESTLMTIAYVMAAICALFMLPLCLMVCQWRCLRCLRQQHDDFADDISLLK
experiment: in vitro BACE Assay run by CEREP (Example 15)
Assay type: biochemical
value.type: IC50 (nM)
Numbers only, in nM.

Q: Look up and report measured IC50 for this entry: `NC1=Nc2cnc3cc2CN1[C@H](C1CCCCC1)CCC(=O)N(C1CCCCC1)CCc1cccc(c1)O3`
Ans: 55

###

measured.on: β-secretase (BACE) (Homo sapiens, UniProt P56817)
Construct: purchased Panvera
experiment: in vitro BACE FS1 % Inhibition Assay (Example 13)
Assay type: biochemical
particulars: 0.3 μM compound; FS1 substrate; pH 5
value.type: % Inhibition (Example 13) @ 0.3 μM (%)
One number for each entry, in %.

// below: answered molecules
CCOC(=O)C1CCC(N2CCc3cccc(c3)Oc3ccc4c(c3)CN(C(N)=N4)[C@H](C(C)C)CCC2=O)CC1 (stereo partly drawn); 4
CC(C)[C@@H]1CC(=O)N(C2CCCCC2)CCCc2cccc(c2)Oc2ccc3c(c2)CN1C(N)=N3; 9
NC1=Nc2ccc3cc2CN1CCN(C(=O)C1CCCCC1)CCCc1cccc(c1)O3; −9

Could I get % Inhibition (Example 13) @ 0.3 μM for every one of these entries?
1. CC(C)[C@H]1CC(=O)N(C2CCCCC2)CCCc2cccc(c2)Oc2ccc3c(c2)CN1C(N)=N3
2. NC1=Nc2ccc3cc2CN1CCN(C1CCCCC1)C(=O)CCc1cccc(c1)O3
3. CC(C)[C@@H]1CCC(=O)Nc2ccc3ccc(cc3c2)Oc2ccc3c(c2)CN1C(N)=N3

Ans:
1: 3; 2: −36; 3: 14

###

What inhibition at 0.3 µM was measured for each of the following?
measured.on: human BACE-1 (Homo sapiens, UniProt P56817)
experiment: in vitro BACE Assay run by CEREP (Example 15)
Type: biochemical
particulars: 0.3 μM compound; recombinant enzyme; pH 4.5; 60 min at 37° C.
Give bare numbers, in %.

Completed entries (count: 4):
NC1=Nc2ccc3cc2CN1[C@H](C1CCCCC1)CCC(=O)N([C@H]1CC[C@@H](O)CC1)CCc1cccc(c1)O3; 93
NC1=Nc2cnc3cc2CN1[C@H](C1CCCCC1)CCC(=O)N(CC1CC1)CCc1cccc(c1)O3; 97
NC1=Nc2cnc3cc2CN1[C@H](C1CCCCC1)CCC(=O)N([C@H]1CC[C@@H](O)CC1)CCc1cccc(c1)O3; 86
NC1=Nc2cnc3cc2CN1[C@H](C1CCCCC1)CCC(=O)N(C1CCCC1)CCc1cccc(c1)O3; 100

Let us examine a further case.
Q: Please give the documented inhibition at 0.3 µM of `NC1=Nc2cnc3cc2CN1[C@H](C1CCCCC1)CCC(=O)N(C1CCCCC1)CCc1cccc(c1)O3`
Ans: 99

###

measured.on: β-secretase (BACE) (Homo sapiens, UniProt P56817)
Construct: purchased Panvera
experiment: in vitro BACE FS1 % Inhibition Assay (Example 13)
Type: biochemical
particulars: 0.3 μM compound; FS1 substrate; pH 5
Method: The following assay buffers were prepared and used in this assay: (1) enzyme assay buffer (0.05 M sodium acetate, pH5, 0.1% PEG8000 (w/v)), (2) substrate assay buffer (0.05 M sodium acetate, pH5), and (3) compound vehicle (30% DMSO in 50 mM HEPES, pH 7.4). The FS1-substrate stock solution was prepared in DMSO as a 10 mg/mL solution. […] For test compounds, % inhibition was determined at each concentration as follows: […]
value.type: % Inhibition (Example 13) @ 0.3 μM (%)
Give bare numbers, in %.

Check out these entries, answers already filled in.
NC1=Nc2ccc3cc2CN1[C@@H](C1CCCCC1)CNC(=O)CCc1cccc(c1)O3 [Compound 16]; 39
NC1=Nc2ccc3cc2CN1CCCNC(=O)Cc1cccc(c1)O3 [Compound 12]; −18

The following compounds each have a reported value; give each one's % Inhibition (Example 13) @ 0.3 μM.
1. CC(C)C1CCC(=O)N(C2CCC(O)CC2)CCc2cccc(c2)Oc2ccc3c(c2)CN1C(N)=N3 (stereo not shown) [Compound 26]
2. NC1=Nc2ccc3cc2CN1[C@H](C1CCOCC1)CCC(=O)NCCc1cccc(c1)O3 [Compound 21]

Ans:
["−8", 54]

###

measured.on: β-secretase (BACE) (Homo sapiens)
Construct: purchased Panvera
experiment: in vitro BACE FS1 % Inhibition Assay (Example 13)
Type: biochemical
particulars: read-out: % Inhibition (Example 13) @ 3 μM; 3 μM compound; FS1 substrate; pH 5
value.type: inhibition at 3 µM (%)
Give bare numbers, in %.

As a guide, the following entries are already answered.
CC(C)[C@@H]1CCC(=O)N(C2CCCCC2)CCOc2cccc(c2)Oc2ccc3c(c2)CN1C(N)=N3; 117
COc1cc2c3cc1Oc1cccc(c1)CCN(C1CCCCC1)C(=O)CC[C@@H](C1CCCCC1)N(C3)C(N)=N2; 115
NC1=Nc2ccc3cc2CN1[C@H](C1CCCCC1)CCC(=O)N([C@H]1CC[C@@H](C(=O)O)CC1)CCc1cccc(c1)O3; 125
CCOC(=O)C1CCC(N2CCc3cccc(c3)Oc3ccc4c(c3)CN(C(N)=N4)C(C(C)C)CCC2=O)CC1 (centres unmarked); 83
NC1=Nc2ccc3cc2CN1CCCCC(=O)N(C1CCCCC1)CCCc1cccc(c1)O3; 120
CC(C)[C@@H]1CCC(=O)N([C@H]2CC[C@@H](C(=O)O)CC2)CCc2cccc(c2)Oc2ccc3c(c2)CN1C(N)=N3; 114
CC(C)[C@@H]1CCC(=O)N(CCCO)CCc2cccc(c2)Oc2ccc3c(c2)CN1C(N)=N3; 111
CC(C)[C@@H]1CCC(=O)N([C@H]2CC[C@H](C(=O)O)CC2)CCc2cccc(c2)Oc2ccc3c(c2)CN1C(N)=N3; 77

List reported inhibition at 3 µM for each of these compounds:
1. NC1=Nc2cc(F)c3cc2CN1[C@H](C1CCCCC1)CCC(=O)N(C1CCCCC1)CCc1cccc(c1)O3
2. NC1=Nc2ccc3cc2CN1CCNC(=O)CCC/C=C/c1ccccc1-3
3. NC1=Nc2ccc3cc2CN1[C@@H](C1CCCCC1)CCCN(C1CCCCC1)CCCc1cccc(c1)O3

Ans:
1: 151; 2: 65; 3: 93
